# TARGET_SYSTEM: T1, extracellular domain (ECD) of recombinant human Sortilin with a C-terminal HIS tag (ECD-huSortilin-HIS) (human, UniProt Q99523 78-755)
# T1 construct: Bought (R&D Systems); also called human sortilin-ECD; not shown: C-terminal HIS tag
# T1 sequence: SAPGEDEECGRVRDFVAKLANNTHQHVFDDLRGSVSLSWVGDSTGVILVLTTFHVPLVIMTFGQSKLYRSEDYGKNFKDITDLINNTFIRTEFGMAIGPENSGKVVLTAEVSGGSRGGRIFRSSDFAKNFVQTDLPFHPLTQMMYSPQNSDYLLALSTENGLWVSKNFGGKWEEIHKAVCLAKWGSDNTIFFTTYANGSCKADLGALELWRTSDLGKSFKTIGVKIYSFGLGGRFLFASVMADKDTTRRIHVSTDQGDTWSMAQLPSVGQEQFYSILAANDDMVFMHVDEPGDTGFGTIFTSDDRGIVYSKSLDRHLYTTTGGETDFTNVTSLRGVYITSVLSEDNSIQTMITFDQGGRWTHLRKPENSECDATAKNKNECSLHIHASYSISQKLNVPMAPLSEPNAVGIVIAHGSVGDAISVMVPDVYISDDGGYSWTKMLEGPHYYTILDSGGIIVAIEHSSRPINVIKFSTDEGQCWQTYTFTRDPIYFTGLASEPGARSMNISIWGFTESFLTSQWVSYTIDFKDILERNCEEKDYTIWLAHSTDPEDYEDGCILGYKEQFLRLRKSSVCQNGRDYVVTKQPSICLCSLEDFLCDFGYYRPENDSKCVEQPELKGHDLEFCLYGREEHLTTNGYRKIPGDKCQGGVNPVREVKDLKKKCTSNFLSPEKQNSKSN
# PROCEDURE_TEXT: SPR (Biacore T200), mAb captured by anti-human antibody on CM5, Sortilin 0.1-300 nM as analyte, global 1:1 fit
RESULT_TYPE: kon (M⁻¹ s⁻¹)
Write down the numeric answer in M⁻¹ s⁻¹ and omit the unit.

Quick one: kon for humanized 8H24 hu8H24VHv2/hu8H24VLv2 (antibody, V domains shown, Human IgG; also called 8H24H2L2) VH: QAQLVQSGAEVVKPGSSVKVSCKASGYTFTSYSMHWVRQAPGQGLEWIGAIYPGNDATSYNQKFKGRATLTVDKSTSTAYMELSSLRSEDTAVYFCAREGYYGSSFEAWFASWGQGTTVTVSS VL: DVVMTQTPSSLPVTPGEPASISCRSSQSIVHSNGNTYLEWYLQKPGQSPQLLIYKVSNRFSGVPDRFSGSGSGTDFTLTISRVEAEDVGVYYCFQGSHVLPTFGGGTKVEIK ? 466000

Quick one: kon for humanized 5E20 hu5E20VHv4/hu5E20VLv4 (antibody, V domains shown, Human IgG; also called 5E20H4L4) VH: EVQLVESGGGLVQPGGSLRLSCAASGFTFSTYGMSWVRQAPDKRLEWVAIISSGGSYTYYSDTVKGRFTISRDNSKNSLYLQMNSLRAEDTAVYYCSRSSSHWYFDVWGQGTLVTVSS VL: DIQMTQSPSSVSASVGDRVTITCHASQGISSNIGWLQQKPGKAFKGLIYHGTNLKDGVPSRFSGSGSGADFTLTISSLQPEDFADYFCVQYAQFPYTFGQGTKVEKR ? 209000

Quick one: kon for humanized 11M14 hu11M14VHv3b/hu11M14VLv4b (antibody, V domains shown, Human IgG; also called 11M14H3bL4b) VH: EVQLVESGGGLVQPGGSLRLSCAASGFTFNIYGMSWVRQAPGKGLEWVATISSGGIYTYYPDILKGRFTISRDNAKNSLYGQMNSLRAEDTAVYYCARHPGGAMDYWGQGTLVTVSS VL: DIQMTQSPSSLSASVGDRVTITCRVSENIYSNLAWYQQKPGKSPKLLVYAATNIADGVPSRFSGSGSGTDYTLTISSLQPEDFATYYCQHFWGTPPWTFGQGTKLEIK ? 435000

Quick one: kon for humanized 11M14 hu11M14VHv2b/hu11M14VLv3b (antibody, V domains shown, Human IgG; also called 11M14H2bL3b) VH: EVQLVESGGGLVQPGGSLRLSCAASGFTFNIYGMSWVRQAPGKGLEWVATISSGGIYTYYPDILKGRFTISRDNAKNSLYLQMNSGRAEDTAVYYCARHPGGAMDYWGQGTLVTVSS VL: DIQMTQSPSSLSASVGDRVTITCRVSENIYSNLAWYQQKPGKSPKLLVYAATNGADGVPSRFSGSGSGTDYTLTISSLQPEDFATYYCQHFWGTPPWTFGQGTKLEIK ? 398000

Then there is this binder:
Quick one: kon for humanized 8H24 hu8H24VHv1/hu8H24VLv1 (antibody, V domains shown, Human IgG; also called 8H24H1L1) VH: QAQLVQSGAEVKKPGSSVKVSCKASGYTFTSYSMHWVRQAPGQGLEWIGAIYPGNDATSYNQKFKGRATLTVDKSTSTAYMELSSLRSEDTAVYFCAREGYYGSSFEAWFASWGQGTTVTVSS VL: DVVMTQTPLSLPVTPGEPASISCRSSQSIVHSNGNTYLEWYLQKPGQSPQLLIYKVSNRFSGVPDRFSGSGSGTDFTLKISRVEAEDVGVYYCFQGSHVLPTFGGGTKVEIK ? 637000
